Assay: Pharmacokinetic parameters in rats
Type: in vivo, SD rats
Conditions: male, SD, rat, plasma, po, 10 mg/kg, oral administration (gavage) 10 mg/kg, average n=3, read-out: Tmax
endpoint: Tmax (min)

>>> reading("Cc1ccc(NC(=O)c2cccc(C(F)(F)F)c2)cc1-n1cc(-c2cncc(N3CCOCC3)c2)cn1 [Example 16]")
40.2
>>> reading("Cc1ccc(NC(=O)c2cccc(C(F)(F)F)c2)cc1-n1cc(-c2cccnc2)cn1 [compound 1, reference compound]")
30

---

Test: Pharmacokinetic parameters in rats
Type: in vivo, SD rats
Conditions: male, Sprague-Dawley, rat, plasma, iv, 1 mg/kg, intravenous injection 1 mg/kg, individual rats #1-#3, read-out: MRT0-∞
endpoint: MRT inf (h)

>>> reading("Cc1ccc(NC(=O)c2cccc(C(F)(F)F)c2)cc1-n1cc(-c2cncc(N3CCOCC3)c2)cn1")
2.75
>>> reading("Cc1ccc(NC(=O)c2cccc(C(F)(F)F)c2)cc1-n1cc(-c2cccnc2)cn1 [compound 1, reference compound]")
0.642
